test system: OVCAR3 cells; test: MTT proliferation assay, OVCAR3; assay type: cell-based; conditions: 5 days compound exposure, 1:3 serial dilution starting at 10 μM;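 also: compound given as an 8- or 10-point series, one day after plating, with exposure covering roughly 3-4 cell doublings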
*1 amine or outer side, *2 acyl side, *3 side chain or, on linkers, in order; H or OH if unused. Where a SMILES comes first, the peptide text is derived from it. Bridges are numbered along the chain shown (N, C = ends). [ ]: non-standard residue; d: D form. The star is where a group is joined. X165 = CN([C@@H](Cc1cc(Cl)ccc1-c1ccc(N2CCOCC2)c(Cl)c1)C(=O)[*:2])[*:1]; X79 = CC(C)n1cc(-c2ccc(Cl)cc2C[C@@H](C(=O)[*:2])N(C)[*:1])cn1; NMehhhLys(Me) = CN([C@@H](CCCCCCCN(C)[*:3])C(=O)[*:2])[*:1]; X51 = CSc1cncc(-c2ccc(Cl)cc2C[C@@H](C(=O)[*:2])N(C)[*:1])c1; X22 = CN([C@@H](Cc1cc(Cl)ccc1-c1cnn(C)c1)C(=O)[*:2])[*:1]; NMe(hhhLys) = CN([C@@H](CCCCCCCN[*:3])C(=O)[*:2])[*:1]; NMe3Pal(2-OMe,5-Cl) = CN[C@@H](Cc1cc(Cl)cnc1OC)C(=O)O; cBuCO(3,3-F2-1-CF3) = O=C(C1(C(F)(F)F)CC(F)(F)C1)*; X133 = Cc1ncc(Cl)cc1C[C@@H](C(=O)[*:2])N(C)[*:1]; Pro(trans-4-F) = O=C(O)[C@@H]1C[C@@H](F)CN1; Gly(cPr) = N[C@H](C(=O)O)C1CC1
Please note: GI50 exactly at 20 nM is Not satisfied. Only values below 20 nM get Satisfied.

* CSc1cncc(-c2ccc(Cl)cc2C[C@H]2C(=O)N(C)CCCCCCC[C@H](N(C)C(=O)[C@@H](NC(=O)[C@@H]3C[C@@H](F)CN3C(=O)C3(C(F)(F)F)CC(F)(F)C3)C3CC3)C(=O)N[C@@H](CC(C)C)C(=O)N2C)c1 [Example 202] ({cBuCO(3,3-F2-1-CF3)}-[Pro(trans-4-F)][Gly(cPr)][NMehhhLys(Me)]L[X51]; lactam 3-C) | Not satisfied
* CC(C)C[C@@H]1NC(=O)[C@@H](N(C)C(=O)[C@@H](NC(=O)[C@@H]2C[C@@H](F)CN2C(=O)C2(C(F)(F)F)CC(F)(F)C2)C2CC2)CCCCCCCN(C)C(=O)[C@H](Cc2cc(Cl)ccc2-c2cnn(C(C)C)c2)N(C)C1=O [Example 111] ({cBuCO(3,3-F2-1-CF3)}-[Pro(trans-4-F)][Gly(cPr)][NMehhhLys(Me)]L[X79]; lactam 3-C) | Satisfied
* CC(C)C[C@@H]1NC(=O)[C@@H](N(C)C(=O)[C@@H](NC(=O)[C@@H]2C[C@@H](F)CN2C(=O)C2(C(F)(F)F)CC2)C2CC2)CC=CCCCCNC(=O)[C@H](Cc2cc(Cl)ccc2Cl)N(C)C1=O (single isomer, unassigned) [Example 5-P2] | Not satisfied
* CCN(C(=O)[C@@H](NC(=O)[C@@H]1C[C@@H](F)CN1C(=O)C1(C(F)(F)F)CC(F)(F)C1)C1CC1)[C@H]1CCCCCCCN(C)C(=O)[C@H](Cc2cc(Cl)cnc2OC2CC2)N(C)C(=O)[C@H](CC(C)C)NC1=O | Not satisfied
* CC(C)C[C@@H]1NC(=O)[C@@H](N(C)C(=O)[C@@H](NC(=O)[C@@H]2C[C@@H](F)CN2C(=O)C2(C(F)(F)F)CC(F)(F)C2)C2CC2)CCCCCCN(C)C(=O)[C@H](Cc2cc(Cl)ccc2-c2cnn(C)c2)N(C)C1=O | Not satisfied
* CC(C)C[C@@H]1NC(=O)[C@@H](NC(=O)[C@@H](NC(=O)[C@@H]2C[C@@H](F)CN2C(=O)C2(C(F)(F)F)CC(F)(F)C2)C2CC2)CCCCCCCNC(=O)[C@H](Cc2cc(Cl)ccc2Cl)N(C)C1=O | Not satisfied
* CC(=O)N1[C@H]2CC[C@@H]1C=C(c1ccc(F)cc1C[C@H]1C(=O)N(C)CCCCCCC[C@H](N(C)C(=O)[C@@H](NC(=O)[C@@H]3C[C@@H](F)CN3C(=O)C3(C(F)(F)F)CC(F)(F)C3)C3CC3)C(=O)N[C@@H](CC(C)C)C(=O)N1C)C2 | Satisfied
* Cc1ncc(Cl)cc1C[C@H]1C(=O)N(C)CCCCCCC[C@H](N(C)C(=O)[C@@H](NC(=O)[C@@H]2C[C@@H](F)CN2C(=O)C2(C(F)(F)F)CC(F)(F)C2)C2CC2)C(=O)N[C@@H](CC(C)C)C(=O)N1C [Example 322] ({cBuCO(3,3-F2-1-CF3)}-[Pro(trans-4-F)][Gly(cPr)][NMehhhLys(Me)]L[X133]; lactam 3-C) | Not satisfied
* CC(C)C[C@@H]1NC(=O)[C@@H](N(C)C(=O)[C@@H](NC(=O)[C@@H]2C[C@@H](F)CN2C(=O)C2(C(F)(F)F)CC(F)(F)C2)C2CC2)CCCCCCCNC(=O)[C@H](Cc2cc(Cl)ccc2-c2cnn(C)c2)N(C)C1=O [Example 66] ({cBuCO(3,3-F2-1-CF3)}-[Pro(trans-4-F)][Gly(cPr)][NMe(hhhLys)]L[X22]; lactam 3-C) | Satisfied
* CC(C)C[C@@H]1NC(=O)[C@@H](N(C)C(=O)[C@@H](NC(=O)[C@@H]2C[C@@H](F)CN2C(=O)C2(C(F)(F)F)CC(F)(F)C2)C2CC2)CCCCCCCN(C)C(=O)[C@H](Cc2cc(Cl)ccc2-c2ccc(N3CCOCC3)c(Cl)c2)N(C)C1=O [Example 345] ({cBuCO(3,3-F2-1-CF3)}-[Pro(trans-4-F)][Gly(cPr)][NMehhhLys(Me)]L[X165]; lactam 3-C) | Not satisfied
* COc1ncc(Cl)cc1C[C@H]1C(=O)N(C)CCCCCCC[C@H](N(C)C(=O)[C@@H](NC(=O)[C@@H]2C[C@@H](F)CN2C(=O)C2(C(F)(F)F)CC(F)(F)C2)C2CC2)C(=O)N[C@@H](CC(C)C)C(=O)N1C [Example 222] ({cBuCO(3,3-F2-1-CF3)}-[Pro(trans-4-F)][Gly(cPr)][NMehhhLys(Me)]L[NMe3Pal(2-OMe,5-Cl)]; lactam 3-C) | Satisfied
* CC(C)C[C@@H]1NC(=O)[C@@H](N(C)C(=O)[C@@H](NC(=O)[C@@H]2C[C@@H](F)CN2C(=O)C2(C(F)(F)F)CCC2)C2CC2)C/C=C\CCCCN(C)C(=O)[C@H](Cc2cc(Cl)ccc2-c2cnn(C3CC3)c2)N(C)C1=O | Satisfied
